// MIC collected for Klebsiella oxytoca MOR 84-28

QUERY: State, in one line, measured MIC of CCn1cc(C(=O)O)c(=O)c2cc(F)c(N3CCN(C)C(c4sc5ccccc5c4C)C3)cc21 (stereo not drawn)
RESULT: > 256 µg/mL

QUERY: Specify MIC for CCn1cc(C(=O)O)c(=O)c2cc(F)c(N3CCNC(c4sc5ccccc5c4C)C3)cc21 (stereo not drawn) and stop.
RESULT: > 256 µg/mL

QUERY: Provide only the value of recorded MIC for CCCCCCCCCCCCOCC1CN(c2cc3c(cc2F)c(=O)c(C(=O)O)cn3CC)CCN1C (stereo not drawn)
RESULT: > 256 µg/mL
